Data provenance: patent US20250147035A1

Consider the following binders; for each one, report its Octet binding assay response.
Molecular target: T1, TAKLDEESILKQ-Biotin
T1 peptide: TAKLDEESILKQ-{Biotin′}
Assay: Octet (BLI), fixed reagent concentration;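 note: octet binding of candidate PTM-specific affinity reagents, each at one fixed concentration, to biotinylated phospho-Thr or phospho-Ser peptides, with unmodified biotinylated peptides serving as controls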
Primed or numbered codes have the meaning given here. Where no end group is shown, it is not given here. Biotin′ = not defined here
One number for each entry.

| binder | recorded-number |
| --- | --- |
| PM05 (Human/14-3-3 protein beta/alpha) (other) MTMDKSELVQKAKLAEQAERYDDMAAAMKAVTEQGHELSNEERNLLSVAYKNVVGARRSSWRVISSIEQKTERNEKKQQMGKEYREKIEAELQDICNDVLELLDKYLIPNATQPESKVFYLKMKGDYFRYLSEVASGDNKQTTVSNSQQAYQEAFEISKKEMQPTHPIRLGLALNFSVFYYEILNSPEKACSLAKTAFDEAIAELDTLNEESYKDSTLIMQLLRDNLTLWTSENQGDEGDAGEGEN | 0.2 |
| PM14 (Saccharomyces cerevisiae/RAD53) (other) MEDQDGKIQGFKIPAHAPIRYTQPKSIEAETREQKLLHSNNTENVKSSKKKGNGRFLTLKPLPDSIIQESLEIQQGVNPFFIGRSEDCNCKIEDNRLSRVHCFIFKKRHAVGKSMYESPAQGLDDIWYCHTGTNVSYLNNNRMIQGTKFLLQDGDEIKIIWDKNNKFVIGFKVEINDTTGLFNEGLGMLQEQRVVLKQTAEEKDLVKKLTQMMAAQRANQPSASSSSMSAKKPPVSDTNNNGNNSVLNDLVESPINANTGNILKRIHSVSLSQSQIDPSKKVKRAKLDQTSKGPENLQFS | 0.1 |

API: the following record is the query input.
Data request, read-out Octet binding assay response, for PM18 (Human/MINT) (other) MVDMVQLLKKYPIVWQGLLALKNDTAAVQLHFVSGNNVLAHRSLPLSEGGPPLRIAQRMRLEATQLEGVARRMTVETDYCLLLALPCGRDQEDVVSQTESLKAAFITYLQAKQAAGIINVPNPGSNQPAYVLQIFPPCEFSESHLSRLAPDLLASISNISPHLMIVIASV 0.6
